# TARGET OR TEST SYSTEM: B1-AR (Homo sapiens, UniProt P08588)
# Construct: expressed in transfected cells; host or cells: CHO-K1
# Sequence (P08588 whole entry, species assumed): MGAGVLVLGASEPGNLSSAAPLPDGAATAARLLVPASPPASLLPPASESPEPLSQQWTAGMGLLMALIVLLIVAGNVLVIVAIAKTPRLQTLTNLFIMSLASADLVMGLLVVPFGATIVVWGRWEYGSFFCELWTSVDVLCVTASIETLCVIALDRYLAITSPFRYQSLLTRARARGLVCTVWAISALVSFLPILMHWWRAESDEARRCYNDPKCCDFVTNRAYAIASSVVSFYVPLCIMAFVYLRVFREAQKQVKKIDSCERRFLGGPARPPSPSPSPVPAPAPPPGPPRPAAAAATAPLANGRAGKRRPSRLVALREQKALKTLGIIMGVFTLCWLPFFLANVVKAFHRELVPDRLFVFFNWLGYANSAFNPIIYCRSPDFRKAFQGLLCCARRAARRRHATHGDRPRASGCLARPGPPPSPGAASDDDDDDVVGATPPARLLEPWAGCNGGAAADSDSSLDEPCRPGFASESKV
# ASSAY DETAILS: cAMP Gs dynamic HTRF assay, cells expressing beta-adrenergic receptor (CHO-K1), B1-AR
# Type: cell-based
# CONDITION NOTES: relative to full agonist isoproterenol, read-out: Emax (% iso) (%) [B1-AR]
Could you please report measured Emax for the items listed next?

Return reported Emax. Input compound: CCc1cc([C@@H](O)CNC(C)(C)C)c2cn[nH]c2c1 [I-105]
< 50%

Identify measured Emax corresponding to O[C@@H](CNC1CCC1)c1ccc(F)c2[nH]ncc12 [I-137]
70 to 90%

Supply reported Emax belonging to this compound: CC1(NC[C@H](O)c2cccc3[nH]ncc23)CCC1 [I-128]
> 90%

Please report Emax for the following compound: CC(C)(C)NC[C@H](O)c1cccc2[nH]c(=O)[nH]c12 [I-94]
70 to 90%

Indicate its recorded Emax; the compound in question is CC1(NC[C@H](O)c2cccc3[nH]nc(F)c23)CC1 [I-126]
70 to 90%

Consider the compound CC(C)NC[C@H](O)c1cc(C#N)cc2[nH]ncc12 [I-161] . State its measured Emax.
> 90%

Return value of Emax for input CCC(C)(C)NC[C@H](O)c1cccc2[nH]ncc12 [I-47] , no commentary.
70 to 90%

Provide only the value of recorded Emax for CC(C)(C)NC[C@H](O)c1cccc2[nH]nc(C(N)=O)c12 [I-95]
70 to 90%

Provide only the value of recorded Emax for C[C@@H](NC[C@H](O)c1cccc2[nH]ncc12)C(C)(C)C [I-9]
> 90%

Return reported Emax. Input compound: CC1(NC[C@H](O)c2cncc3[nH]ncc23)CCC1 [I-156]
70 to 90%

// Input: CC1C(=O)Nc2cccc([C@@H](O)CNC(C)(C)C)c21 (stereo partly shown) [I-91] . Output its Emax only.
< 50%

Give the measured Emax for Cc1n[nH]c2cc(F)cc([C@@H](O)CNC(C)(C)C)c12 [I-61]
70 to 90%

// Input: CC(C)(C)NC[C@@H](O)c1cncc2[nH]ncc12 [I-66] . Output its Emax only.
70 to 90%

Determine from records and report Emax for CCC(C)(CC)NC[C@H](O)c1ccc(F)c2[nH]ncc12 [I-28]
> 90%

For the compound C[C@@H](NC[C@H](O)c1ccc(F)c2[nH]ncc12)C(C)(C)C [I-16] , give its reported Emax.
> 90%

Fill in Emax for record Cc1nc(N)c(F)cc1[C@H](CO)NC(C)(C)C [I-180]
< 50%

For O[C@@H](CNC1CC1)c1cccc2[nH]cc(F)c12 [I-108] , write its Emax.
> 90%

Report measured Emax; entry is CC[C@H](C)NC[C@H](O)c1cccc2[nH]nc(F)c12 [I-35]
70 to 90%

Output Emax of CC(C)[C@@H](C)NC[C@H](O)c1cccc2[nH]ncc12 [I-33]
70 to 90%

Consider the compound CC(C)(C)C(C)(C)NC[C@H](O)c1ccc(F)c2[nH]ncc12 [I-8] and give its recorded Emax.
70 to 90%

Note down Emax recorded for CC(C)CNC[C@H](O)c1ccc(Cl)c2[nH]ncc12 [I-117]
50 to 70%

Return Emax for the following compound: CC(C)(NC[C@H](O)c1cc(C#N)cc2[nH]ncc12)C1CC1 [I-1]
> 90%

State its Emax: O[C@@H](CNC1CCC1)c1cccc2[nH]ncc12 [I-127]
> 90%

Tell me Emax reported for Cc1ccc2cc([C@@H](O)CNC(C)(C)C)ccc2n1 [I-82]
< 50%

Input COc1cc([C@@H](O)CNC(C)(C)C)c2cn[nH]c2c1F [I-59] , output reported Emax.
< 50%

Respond only with Emax recorded for CCC(CC)NC[C@H](O)c1ccc(F)c2[nH]ncc12 [I-37]
70 to 90%

Return the recorded Emax value; entry: CC(C)(CO)NC[C@H](O)c1cc(C#N)cc2[nH]ncc12 [I-151]
70 to 90%

# return recorded Emax for input Cn1ccc(CNC[C@H](O)c2ccc(F)c3[nH]ncc23)n1 [I-65]
50 to 70%

Quick one: give measured Emax for C[C@H](NC[C@H](O)c1cccc2[nH]ncc12)C(C)(C)C [I-6]
70 to 90%

Input CC(C)(C)CNC[C@H](O)c1ccc(Cl)c2[nH]ncc12 [I-68] , output reported Emax.
70 to 90%

# return recorded Emax for entry CC(C)(C)NC[C@@H](O)c1ccc(N)nn1 [I-141]
> 90%

Recall and state the measured Emax for CC(C)CNC[C@H](O)c1cccc2[nH]ncc12 [I-133] .
70 to 90%

Quick one: give measured Emax for Cc1n[nH]c2cccc([C@@H](O)CNCC(C)C)c12 [I-174]
70 to 90%

Identify measured Emax associated with Cc1ncccc1[C@@H](O)CNC1CCC1 [I-187]
70 to 90%

Assign Emax to the following record: O[C@@H](CNC1CC1)c1cccc2[nH]nc(F)c12 [I-140]
> 90%

Write down Emax measured for item N#Cc1cc([C@@H](O)CNC2CCC2)c2cn[nH]c2c1 [I-152]
70 to 90%

Identify Emax associated with the compound CC(C)(C)NC[C@H](O)c1cccc2[nH]nc(C(F)F)c12 [I-175]
70 to 90%

Write down Emax measured for item CC(C)(C)NC[C@H](O)c1cccc2[nH]nc(C3CC3)c12 [I-125]
70 to 90%

Give the reported value of Emax for this record: CC(C)(C)NC[C@H](O)c1cc(F)cc2[nH]cnc12 [I-131]
> 90%

Item CNc1ncc([C@@H](O)CNC(C)(C)C)cn1 [I-70] : provide Emax
70 to 90%

For the compound C[C@H](NC[C@H](O)c1cc(C#N)cc2[nH]ncc12)C(C)(C)C [I-5] , report Emax.
50 to 70%

Supply Emax value. Item: CC(C)(C)NC[C@H](O)c1cc(F)c(Cl)c2[nH]ncc12 [I-58]
70 to 90%

# return recorded Emax for input CC(C)(C)C(C)(C)NC[C@H](O)c1cc(C#N)cc2[nH]ncc12 [I-4]
< 50%
